Literature IC50 values, system: Cyclin-dependent kinase 1 (Homo sapiens, UniProt P06493).
Label yes (1) when IC50 < 0.05 µM; otherwise no (0).

[[record]]
compound_structure_string = "FC(F)(F)c1cnc(Nc2ccc3[nH]cnc3c2)nc1Nc1ccc2[nH]cnc2c1"
target_of_assay = "Cyclin-dependent kinase 1 (Homo sapiens, UniProt P06493)"
classification = "yes (1)"

[[record]]
compound_structure_string = "CCN1CCN(Cc2ccc(Nc3cc(-c4cc(F)c5nc(C)n(C(C)C)c5c4)ncn3)nn2)CC1"
target_of_assay = "Cyclin-dependent kinase 1 (Homo sapiens, UniProt P06493)"
classification = "no (0)"

[[record]]
compound_structure_string = "COc1cccc(Sc2nc(Nc3ccc4nc[nH]c4c3)ncc2C(F)(F)F)c1"
target_of_assay = "Cyclin-dependent kinase 1 (Homo sapiens, UniProt P06493)"
classification = "no (0)"

[[record]]
compound_structure_string = "Cc1nc(C)c(-c2nc(Nc3ccc(CCN(C)C)cc3)ncc2Cl)s1"
target_of_assay = "Cyclin-dependent kinase 1 (Homo sapiens, UniProt P06493)"
classification = "no (0)"

[[record]]
compound_structure_string = "NC(=O)c1ccc2c(c1)NC(=O)/C2=C(\\Nc1ccc(CN2CCCCC2)cc1)c1ccccc1"
target_of_assay = "Cyclin-dependent kinase 1 (Homo sapiens, UniProt P06493)"
classification = "no (0)"

[[record]]
compound_structure_string = "O=C(Cc1cccc(Br)c1)Nc1n[nH]c2ccc(N3CCCS3(=O)=O)cc12"
target_of_assay = "Cyclin-dependent kinase 1 (Homo sapiens, UniProt P06493)"
classification = "yes (1)"

[[record]]
compound_structure_string = "OCCSC(=S)Nc1ccc(Cl)c(Cl)c1"
target_of_assay = "Cyclin-dependent kinase 1 (Homo sapiens, UniProt P06493)"
classification = "no (0)"

[[record]]
compound_structure_string = "N[C@H]1CC[C@H](Nc2cc(Nc3ccc(S(=O)(=O)c4ccccc4)cc3)n3ncnc3n2)CC1"
target_of_assay = "Cyclin-dependent kinase 1 (Homo sapiens, UniProt P06493)"
classification = "no (0)"

[[record]]
compound_structure_string = "O=C(Cc1ccc(O)cc1)Nc1n[nH]c2ccc(N3CCCS3(=O)=O)cc12"
target_of_assay = "Cyclin-dependent kinase 1 (Homo sapiens, UniProt P06493)"
classification = "yes (1)"

[[record]]
compound_structure_string = "COc1cc2c(Nc3ccc(NC(=O)c4ccccc4)cc3)ncnc2cc1O"
target_of_assay = "Cyclin-dependent kinase 1 (Homo sapiens, UniProt P06493)"
classification = "no (0)"

